# TEST DESCRIPTION: In vivo pharmacokinetics of rat, single intravenous injection or oral administration by gavage
# Design: species or system Male Sprague Dawley rats
# CONDITION DESCRIPTION: male, Sprague-Dawley, plasma, intravenous administration 1 mg/kg, read-out: VZ
MEASUREMENT TYPE: Vd (L/kg)

The cases that follow already have their Vd on record.
O=C(Nc1ccc[n+]([O-])c1)c1c(Oc2ccc(OC(F)(F)F)c(F)c2)cc(C(F)(F)F)c(Cl)c1F : 0.355
O=C(Nc1ccc[n+]([O-])c1)c1c(Oc2ccc(OC(F)(F)F)cc2)cc(C(F)(F)F)c(Cl)c1F : 0.228

(A) Cc1cc(F)ccc1Oc1cc(C(F)(F)F)c(Cl)cc1C(=O)Nc1ccc[n+]([O-])c1
(B) O=C(Nc1ccc[n+]([O-])c1)c1cc(Cl)c(Cl)cc1Oc1ccc(OC(F)(F)F)cc1
Hey, between A and B which has a smaller measured Vd? # answer = label of selected item
B
